System: HL-60(TB) leukemia
Experiment: NCI tumour cell line growth inhibition, 48 h
Entry flag: true (1) if TGI reaches 40 µM; false (0) if it does not.

O=C(c1ccco1)N(C(=O)N1CCN(c2ccccc2)CC1)S(=O)(=O)c1ccccc1 : true (1)
O=C(NNS(=O)(=O)c1ccc(Cl)cc1Cl)c1cccnc1Nc1ccc(Cl)cc1 : true (1)
COc1cccc(Oc2ccccc2NC(=O)CNC(=O)c2cccc3ccccc23)c1 : false (0)
Oc1c(-c2cc(C(F)(F)F)[nH]n2)cc(Cl)c(OCc2ccc(Cl)cc2)c1-c1ccc(Cl)c(C(F)(F)F)c1 : false (0)
CCOC(=O)/C(I)=C/c1cc(OC)c(OC)c(OC)c1 : false (0)
O=C(CN1N=C(c2ccc(F)cc2)CCC1=O)Nc1nc2ccccc2s1 : false (0)
c1ccc(N=C2c3ccsc3C(=Nc3ccccc3)c3ccsc32)cc1 : false (0)
O=C1OC(=O)c2c1c(-c1ccccc1)nc1ccccc21 : true (1)
CN(CCCNC(=O)c1cc(-c2ccccc2)nc2ccccc12)CCCNC(=O)c1cc(-c2ccccc2)nc2ccccc12 : false (0)
COc1cc(Nc2nc3cc(C(F)(F)F)ccc3n3cccc23)cc(OC)c1OC : true (1)
CC(C)(CCC(C)(C)N1OC1c1ccccc1)N1OC1c1ccccc1 (stereo not given) : true (1)
Cc1[nH]nc(-c2ccon2)c1N=O : false (0)
CCOC(=O)C1Nc2ccccc2[C@H]2OCC[C@@H]12 (stereo not given in full) : true (1)
Cn1ccnc1Oc1ccc(Cl)cc1 : false (0)
N#C/C(C(=S)NCc1ccccc1)=C(/N)N1CCCC1 : true (1)
Clc1ccc2oc(CCc3ccccc3)nc2c1 : true (1)
C[C@@H]1O[C@@H](O[C@@H]2[C@@H](O)[C@H](OCCc3ccc(O)c(O)c3)O[C@H](CO)[C@H]2OC(=O)/C=C/c2ccc(O)c(O)c2)[C@H](O)[C@H](OC2OC[C@](O)(CO)[C@H]2O)[C@H]1O (stereo not given in full) : true (1)
N/C(=N\OC(=O)c1ccccc1)C(Cc1ccccc1)C(=O)NOC(=O)c1ccccc1 (stereo not given) : false (0)
Cc1ccc(NC(=O)C(=O)C(C(=O)/C=C/c2ccccc2)C2OC(=O)c3ccccc32)c(C)c1 (stereo not given) : true (1)
Oc1cccc2c1NCCC2 : false (0)
CCOC(=O)c1c[nH]c2ccc3c(c2c1=O)S(=O)(=O)CC3 (tested in a mixture with another compound) : true (1)
COC(=O)C(=O)Cc1nc2ccccc2o1 : true (1)
C[C@@H]1Cc2cc(O)ccc2[C@H]2CC[C@]3(C)/C(=C/COCCN(C)C)CC[C@H]3[C@H]12 (tested in a mixture with another compound) : false (0)
COc1cc(Oc2nc3ccc(C(F)(F)F)cc3nc2-c2ccccc2)cc(OC)c1OC : true (1)
COc1cc(C2(C)SCCCS2)cc(OC)c1OC : true (1)
Oc1cc(-n2cccn2)c(O)cc1-n1cccn1 : false (0)
CC(=O)/C(=C\c1ccccc1O)C(=O)Nc1ccccc1C : true (1)
c1cc(-c2cn3c(n2)SCC3)ccn1 : true (1)
O=C1CCCC/C1=C\c1ccc(Cl)c(Cl)c1 : true (1)

Reference source: PubChem BioAssay (NCI)
